Listing of recorded IC50 by entry.
# targetOrSystem: Sodium channel alpha subunits; brain (Types I, II, III) (Homo sapiens, UniProt P35498+Q99250+Q9NY46)
# Sequence (Q99250 whole entry, looked up, other chains not shown): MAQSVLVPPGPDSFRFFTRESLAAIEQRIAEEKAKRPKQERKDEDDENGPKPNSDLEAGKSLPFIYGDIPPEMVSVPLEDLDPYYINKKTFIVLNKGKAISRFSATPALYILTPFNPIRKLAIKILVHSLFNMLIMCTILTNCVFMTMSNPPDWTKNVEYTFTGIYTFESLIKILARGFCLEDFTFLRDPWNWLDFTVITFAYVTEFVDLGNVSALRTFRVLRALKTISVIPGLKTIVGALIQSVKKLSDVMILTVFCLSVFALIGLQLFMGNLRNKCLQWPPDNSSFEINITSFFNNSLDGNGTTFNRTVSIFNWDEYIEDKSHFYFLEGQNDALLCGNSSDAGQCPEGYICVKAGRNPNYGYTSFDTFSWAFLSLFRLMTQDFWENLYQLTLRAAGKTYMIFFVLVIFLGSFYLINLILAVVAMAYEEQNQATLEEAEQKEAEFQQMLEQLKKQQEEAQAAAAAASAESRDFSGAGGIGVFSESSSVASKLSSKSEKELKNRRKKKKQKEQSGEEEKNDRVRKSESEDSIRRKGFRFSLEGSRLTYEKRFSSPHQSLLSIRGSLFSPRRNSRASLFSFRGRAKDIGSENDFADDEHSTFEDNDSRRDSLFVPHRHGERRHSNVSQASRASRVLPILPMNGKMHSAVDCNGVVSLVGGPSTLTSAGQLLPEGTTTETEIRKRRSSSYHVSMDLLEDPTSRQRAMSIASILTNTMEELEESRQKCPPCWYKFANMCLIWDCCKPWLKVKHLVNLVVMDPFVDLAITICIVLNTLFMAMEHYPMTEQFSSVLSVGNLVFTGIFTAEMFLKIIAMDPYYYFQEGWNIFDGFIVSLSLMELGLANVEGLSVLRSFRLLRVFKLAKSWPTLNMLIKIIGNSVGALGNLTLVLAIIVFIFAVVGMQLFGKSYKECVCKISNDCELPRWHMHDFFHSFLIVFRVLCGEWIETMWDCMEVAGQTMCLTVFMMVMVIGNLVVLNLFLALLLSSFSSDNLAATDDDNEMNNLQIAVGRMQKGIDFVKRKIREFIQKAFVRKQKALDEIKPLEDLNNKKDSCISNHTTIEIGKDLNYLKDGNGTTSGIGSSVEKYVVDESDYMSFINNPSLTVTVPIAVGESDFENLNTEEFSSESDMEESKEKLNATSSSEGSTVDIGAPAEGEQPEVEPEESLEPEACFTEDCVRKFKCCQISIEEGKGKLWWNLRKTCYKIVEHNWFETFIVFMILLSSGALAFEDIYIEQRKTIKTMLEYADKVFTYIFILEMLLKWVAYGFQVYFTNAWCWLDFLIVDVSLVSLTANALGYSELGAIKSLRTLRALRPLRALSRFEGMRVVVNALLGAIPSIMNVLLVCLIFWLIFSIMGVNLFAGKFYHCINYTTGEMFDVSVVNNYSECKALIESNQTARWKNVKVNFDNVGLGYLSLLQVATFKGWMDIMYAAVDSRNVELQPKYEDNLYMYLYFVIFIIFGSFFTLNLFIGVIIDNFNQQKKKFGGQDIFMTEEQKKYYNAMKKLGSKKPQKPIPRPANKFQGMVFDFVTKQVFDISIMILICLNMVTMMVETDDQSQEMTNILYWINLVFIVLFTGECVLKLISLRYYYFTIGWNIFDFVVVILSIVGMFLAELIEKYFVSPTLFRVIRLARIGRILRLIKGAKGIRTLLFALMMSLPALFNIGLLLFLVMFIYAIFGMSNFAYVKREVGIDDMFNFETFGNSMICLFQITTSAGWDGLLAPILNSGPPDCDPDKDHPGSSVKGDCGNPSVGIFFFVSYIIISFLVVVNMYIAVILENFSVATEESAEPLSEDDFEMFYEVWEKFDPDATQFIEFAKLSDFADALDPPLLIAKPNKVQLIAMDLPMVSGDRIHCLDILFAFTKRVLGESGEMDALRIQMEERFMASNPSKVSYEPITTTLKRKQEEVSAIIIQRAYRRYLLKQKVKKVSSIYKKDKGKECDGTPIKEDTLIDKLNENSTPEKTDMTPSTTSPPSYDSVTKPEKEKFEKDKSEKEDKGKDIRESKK
# Sequence (Q9NY46 whole entry, looked up, other chains not shown): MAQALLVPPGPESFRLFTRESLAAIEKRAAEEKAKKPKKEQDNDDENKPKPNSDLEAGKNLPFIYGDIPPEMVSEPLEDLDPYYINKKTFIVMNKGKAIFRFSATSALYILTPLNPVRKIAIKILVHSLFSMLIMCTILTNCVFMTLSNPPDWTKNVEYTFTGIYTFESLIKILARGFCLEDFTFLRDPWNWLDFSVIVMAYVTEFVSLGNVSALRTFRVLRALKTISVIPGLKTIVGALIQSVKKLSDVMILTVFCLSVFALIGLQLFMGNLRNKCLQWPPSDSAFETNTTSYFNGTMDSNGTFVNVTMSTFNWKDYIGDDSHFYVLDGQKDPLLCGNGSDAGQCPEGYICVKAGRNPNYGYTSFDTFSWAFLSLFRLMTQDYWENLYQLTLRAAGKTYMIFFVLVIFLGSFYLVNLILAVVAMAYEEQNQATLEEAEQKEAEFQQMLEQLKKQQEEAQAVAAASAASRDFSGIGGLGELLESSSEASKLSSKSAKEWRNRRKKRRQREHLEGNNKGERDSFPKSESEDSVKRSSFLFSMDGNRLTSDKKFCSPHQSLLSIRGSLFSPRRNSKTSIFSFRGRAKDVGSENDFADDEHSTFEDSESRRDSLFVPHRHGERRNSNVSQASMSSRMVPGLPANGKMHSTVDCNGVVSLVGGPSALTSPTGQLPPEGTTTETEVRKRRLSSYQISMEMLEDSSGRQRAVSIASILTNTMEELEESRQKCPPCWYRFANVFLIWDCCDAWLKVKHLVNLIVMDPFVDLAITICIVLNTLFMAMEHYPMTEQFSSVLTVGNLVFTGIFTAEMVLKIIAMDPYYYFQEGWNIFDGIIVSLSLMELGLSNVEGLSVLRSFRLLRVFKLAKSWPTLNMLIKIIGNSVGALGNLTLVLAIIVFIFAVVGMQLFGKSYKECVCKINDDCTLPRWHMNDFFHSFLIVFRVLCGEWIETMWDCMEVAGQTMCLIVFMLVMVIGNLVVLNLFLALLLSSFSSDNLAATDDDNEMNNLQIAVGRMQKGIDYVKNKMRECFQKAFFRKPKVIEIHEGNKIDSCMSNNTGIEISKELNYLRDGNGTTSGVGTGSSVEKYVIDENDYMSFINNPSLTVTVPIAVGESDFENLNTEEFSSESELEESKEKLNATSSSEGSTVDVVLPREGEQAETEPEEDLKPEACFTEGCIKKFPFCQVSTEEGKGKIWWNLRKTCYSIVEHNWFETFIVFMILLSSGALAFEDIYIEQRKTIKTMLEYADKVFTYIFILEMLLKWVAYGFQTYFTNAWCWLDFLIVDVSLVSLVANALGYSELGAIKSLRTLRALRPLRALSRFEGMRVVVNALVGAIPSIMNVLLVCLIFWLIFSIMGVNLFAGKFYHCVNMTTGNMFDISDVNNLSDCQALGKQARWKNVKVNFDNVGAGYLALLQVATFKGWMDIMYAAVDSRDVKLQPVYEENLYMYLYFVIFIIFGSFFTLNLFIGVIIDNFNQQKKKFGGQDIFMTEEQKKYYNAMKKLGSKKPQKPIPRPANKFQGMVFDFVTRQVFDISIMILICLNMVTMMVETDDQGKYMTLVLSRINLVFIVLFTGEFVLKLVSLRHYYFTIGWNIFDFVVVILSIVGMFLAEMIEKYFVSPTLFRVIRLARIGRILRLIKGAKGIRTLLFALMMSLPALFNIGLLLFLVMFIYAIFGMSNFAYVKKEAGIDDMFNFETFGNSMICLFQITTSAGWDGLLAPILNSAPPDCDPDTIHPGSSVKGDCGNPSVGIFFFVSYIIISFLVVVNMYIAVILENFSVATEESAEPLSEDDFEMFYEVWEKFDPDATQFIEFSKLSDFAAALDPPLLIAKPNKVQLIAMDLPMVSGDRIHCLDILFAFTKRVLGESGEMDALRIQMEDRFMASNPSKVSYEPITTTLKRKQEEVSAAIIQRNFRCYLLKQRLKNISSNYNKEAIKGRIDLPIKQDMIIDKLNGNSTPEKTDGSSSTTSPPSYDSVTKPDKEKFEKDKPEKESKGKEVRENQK
# assayInfo: Inhibition of binding of Batrachotoxinin [3H]BTX-B to high affinity sites on voltage dependent sodium channels in a vesicular preparation from guinea pig cerebral cortex
# Type: tissue-based, Cavia porcellus
assayReadout: IC50 (µM)

1. CN(C)CCCN1c2ccccc2Sc2ccc(Cl)cc21 [CHLORPROMAZINE]: 4.3
2. CN(C)CCCN1c2ccccc2Sc2ccccc21 [PROMAZINE]: 5.4
3. CCCC[N+]1(C)CCCCC1C(=O)Nc1c(C)cccc1C.[I-] (stereo unspecified): 4.8
4. CN1CCC(=C2c3ccccc3C=Cc3ccccc32)CC1 [CYPROHEPTADINE]: 1
5. COc1ccc(CCN(C)CCCC2(c3ccc(OC)c(OC)c3)S(=O)(=O)CCCS2(=O)=O)cc1OC: 13.5
6. CC(C)NC[C@H](O)COc1cccc2ccccc12 [LEVOPROPRANOLOL]: 13
7. CCOC(=O)c1ccc(N)cc1 [BENZOCAINE]: 910
8. CN(C)CCCN1c2ccccc2CCc2ccccc21 [IMIPRAMINE]: 3.6
9. CCN(CC)CCOC(=O)c1ccc(N)cc1 [PROCAINE]: 110
10. CC[N+](CC)(CC)CC(=O)Nc1c(C)cccc1C.[Cl-]: 97
11. CCCNC(C)C(=O)Nc1ccccc1C (stereo unspecified) [PRILOCAINE]: 54

====

# targetOrSystem: Sodium channel alpha subunits; brain (Types I, II, III) (Homo sapiens, UniProt P35498+Q99250+Q9NY46)
# experimentalConditions: Cavia porcellus; Cerebral cortex; at 10 µM
Short version: inhibition at least 30% is satisfied, less is not satisfied.

1) COc1ccc(CN(CCN(C)C)c2ccccn2)cc1: satisfied
2) Cc1ccc(OCC(O)C(C)NC(C)C)c2c1CCC2 (stereo unspecified): satisfied
3) CCN(CC)CCNC(=O)c1ccc(N=[N+]=[N-])cc1: not satisfied
4) COc1cc(C(=O)OCCCN2CCCN(CCCOC(=O)c3cc(OC)c(OC)c(OC)c3)CC2)cc(OC)c1OC: satisfied
5) CN(C)CC/C=C1/c2ccccc2Sc2ccc(Cl)cc21: satisfied
6) CC(C)(C)NCC(O)COc1cccc2c1CCCC2=O (stereo unspecified): not satisfied

====

# targetOrSystem: Sodium channel alpha subunits; brain (Types I, II, III) (Homo sapiens, UniProt P35498+Q99250+Q9NY46)
# experimentalConditions: Cavia porcellus; Cerebral cortex; at 10 µM
assayReadout: inhibition (%)

1. CC(C)Cn1c(=O)n(C)c(=O)c2nc[nH]c21: 0.9
2. Nc1nc(Cl)nc2c1ncn2[C@@H]1O[C@H](CO)[C@@H](O)[C@H]1O: 1.3
3. C=CCC1(C(C)CCC)C(=O)NC(=O)NC1=O (stereo not given): 4.4
4. COC(=O)[C@@H]1[C@H]2C[C@H]3c4[nH]c5ccccc5c4CCN3C[C@@H]2CC[C@@H]1O: 25.6
5. CCCCOc1ccc(OCCCN2CCOCC2)cc1: 29.7
6. CCCNC(C)(C)COC(=O)c1ccccc1: 57.6
7. Cl.NCCCCCCNS(=O)(=O)c1cccc2c(Cl)cccc12: 46.8
8. CCN(CC)CC(=O)Nc1c(C)cccc1C: 9.8
9. CN(C)CCC=C1c2ccccc2CCc2ccccc21: 73.8
10. CN1CC[C@@]23CCCC[C@@H]2[C@@H]1Cc1ccc(O)cc13: 38.2
